# Test system: RXF 393
# protocol.description: NCI tumour cell line growth inhibition, 48 h
Calls of active or inactive are those of the source. Rule as the data show it: active = GI50 up to about 1.1 µM and inactive = higher.
Reply using exactly one outcome from Yes for active, No for inactive

> print(dat)
                                   molecule  category
1           C/C(=N\Nc1ncnc2ccccc12)c1ccccn1       Yes
2  O=C(O)C(CCc1ccccn1)c1ccccc1 (stereo unspecified)        No

Incoming: What was the test verdict on Cc1ccc([N+](=O)[O-])cc1S(=O)(=O)Nc1ccc(C2=NN(C(=O)c3ccccc3)C(c3cccs3)C2)cc1 (stereo unspecified) ?
Outgoing: No

Incoming: Recorded test outcome, item "N=C(N)N/N=C(\c1ccc(Cl)cc1)C1CC1"
Outgoing: No

Incoming: // return assay outcome for "O=C(CCc1cc(O)cc(O)c1)NCCc1cc(O)cc(O)c1"
Outgoing: No

Incoming: Returns: the outcome recorded for "CCc1cc(CCC(=O)Nc2c(C)cccc2C)n[nH]1" in this assay.
Outgoing: No

Incoming: What classification did "Cc1c(-c2ccccc2)[nH]c2ccc(Cl)cc2c1=O" end up with in this test?
Outgoing: No

Incoming: In this assay, the call recorded for "O=C(O)c1c(-c2cccc3ccccc23)sc(-c2cccc3ccccc23)c1C(=O)O" was what?
Outgoing: No

Incoming: Entry "O=C1OCC/C1=C/c1ccc(/N=N/c2c(O)ccc3ccccc23)cc1" : call = ?
Outgoing: No

Incoming: Tell me the recorded outcome of this test for "CC(=O)OCc1ncccc1C(OC(C)=O)OC(C)=O" .
Outgoing: No

Incoming: What did the test return for "Cc1cc(NC(=O)C(=O)Cc2nc3ccccc3s2)ccc1Cl" ?
Outgoing: No

---

Property: GI50; scope: individual molecules
# Test system: HOP-62
# protocol.description: NCI tumour cell line growth inhibition, 48 h
Activity calls are given as the source filed them. No stated cut-off is given here; in the data, active = GI50 up to about 1.1 µM and inactive = higher.

Completed entries (count: 2):
> print(dat)
                                   molecule  observation.type  observed.measurement
1  C/C=C(/C)C(=O)O[C@@H]1c2c(C)coc2C[C@H]2CC[C@H](O)[C@H](C)[C@]21C              GI50   > 100 µM (inactive)
2                  CCN(CCC#N)C(=O)Nc1ccccc1              GI50   > 100 µM (inactive)

Incoming: Return reported GI50; argument: "CN(C)CCNC(=O)c1cc([N+](=O)[O-])cc2c1Oc1ccccc1O2"
Outgoing: 22.5 µM (inactive)

Incoming: Entry under review: CCN(CC)C1CC(O[C@H]2C[C@](O)(C(=O)CO)Cc3c(O)c4c(c(O)c32)C(=O)c2c(OC)cccc2C4=O)OC(C)C1O (some centres not stated) . Reported GI50?
Outgoing: 0.0887 µM (active)

Incoming: Form field: reported GI50 of "O=C1[C@H](Cl)[C@H]2c3cc4ccccc4nc3Oc3ccccc3N12"
Outgoing: 35.4 µM (inactive)

Incoming: Suppose we examine the molecule "O=C1Nc2ccc([N+](=O)[O-])cc2/C1=N/NC(=S)Nc1ccc([N+](=O)[O-])cc1" ; what GI50 value has been reported?
Outgoing: 22.6 µM (inactive)

Incoming: Report GI50 for "O=[N+]([O-])c1ncc(N(CCO)CCO)s1" please.
Outgoing: 42.9 µM (inactive)

---

# Tested on: NCI-H23
# protocol.description: NCI tumour cell line growth inhibition, 48 h
The source made the active and inactive calls. Rule as the data show it: active = GI50 up to about 1.1 µM and inactive = higher.
Pick one and only one: t (active), f (inactive)

> print(dat)
                                   compound  category
1  O=C(Nc1nc(C23CC4CC(CC(C4)C2)C3)cs1)c1cc2ccc(O)cc2oc1=O         f
2  Cc1ccc(NC(=O)C2C(=O)N(c3ccc(C)c(C)c3)C(=O)C2N=N)cc1C (stereo unspecified)         f
3  CC(C)[C@]12O[C@H]1[C@@H]1O[C@]13[C@]1(O[C@H]1C[C@H]1C4=C(CC[C@@]13C)C(=O)OC4)[C@@H]2O [TRIPTOLIDE]         t
4  CC(=O)OCC1OC(n2c(C)c(C)c(C)c(C#N)c2=S)C(OC(C)=O)C(OC(C)=O)C1OC(C)=O (stereo unspecified)         f
5          c1cc(C[S+]2CCCC2)ccc1C[S+]1CCCC1         f

From here, focus on the item given below.
Incoming: What was the test verdict on OC1CCCC1C(O)(C(F)(F)F)C(F)(F)F (stereo unspecified) ?
Outgoing: f

---

# Tested on: SK-MEL-28
# protocol.description: NCI tumour cell line growth inhibition, 48 h
Activity calls are given as the source filed them. Rule as the data show it: active = GI50 up to about 1.1 µM and inactive = higher.
// classify into active, inactive

> print(dat)
                                   compound  category
1  COc1ccc(OC)c2c(/C=C/c3ccc(N(C)C)cc3)ccnc12  inactive

Incoming: Per the records of this test, what outcome belongs to COc1ccccc1NC1Oc2cc3c(cc2C(c2cc(OC)c(OC)c(OC)c2)C1C)OCO3 (stereo not drawn) ?
Outgoing: inactive

Incoming: Each compound tested received a call. Report the one for CCOC(=O)c1c(-c2ccc(O)c(OC)c2)c(C#N)c(=S)n(C2OC(CO)C(O)C(O)C2O)c1-c1ccccc1 (stereo not drawn) .
Outgoing: inactive

Incoming: Tell me the recorded outcome of this test for "CCCCCCCCCCCCCCCCC1=CC(=O)C=C(OC)C1=O" .
Outgoing: inactive

Incoming: Identify the outcome logged in this assay for the compound shown: "C/C(=N\Nc1ncnc2ccccc12)c1ccccn1"
Outgoing: active

Incoming: Field: outcome | Entry: "CCCCOC(=O)NC(=O)c1cn(CCCOC(=O)CCCCCCCCC(=O)OCCCn2cc(C(=O)NC(=O)OCCCC)c(=O)n(C)c2=O)c(=O)n(C)c1=O"
Outgoing: inactive

Incoming: # fetch the recorded call for CCOC(=O)C(C)Sc1nnc(COc2ccccc2OC)n1-c1ccccc1 (stereo not drawn) here
Outgoing: inactive

Incoming: Assay result, entry CC(NC(=O)NC(C)(C)C)NC(=O)C(N)CC(=O)O (stereo not drawn) — outcome?
Outgoing: inactive

Incoming: Name the outcome recorded for "CCCCCCCCCc1cccc(N2C(N)=NC(N)=NC2(C)C)c1" in the assay.
Outgoing: active

---

# Tested on: HCC 2998
# protocol.description: NCI tumour cell line growth inhibition, 48 h
Calls of active or inactive are those of the source. Rule as the data show it: active = GI50 up to about 1.1 µM and inactive = higher.
Recorded GI50 for the following molecules

# count of solved cases: 4
> print(dat)
                                   molecule  experimental.target  observation.type  observed.measurement
1             O=C(CCN1CC2CCC(CC2)C1)c1cccs1             HCC 2998              GI50    15.6 µM (inactive)
2      CCOC(=O)/C(=C/c1ccccn1)C(=O)c1ccccc1             HCC 2998              GI50    17.3 µM (inactive)
3  Cc1cc(O)nc(NN2C(Cl)C(=O)C2c2cccc(O)c2)n1 (stereo not drawn)             HCC 2998              GI50    15.1 µM (inactive)
4    CCN(CCO)CCNc1ccc(C)c2sc3ccccc3c(=O)c12             HCC 2998              GI50    2.28 µM (inactive)

Incoming: Any idea what GI50 came out for N#CC1=C(N)N(/N=C/c2ccccc2)C(c2ccccc2)C1(C#N)C#N (stereo not drawn) on HCC 2998?
Outgoing: 19.6 µM (inactive)

Incoming: Notebook: pull reported GI50 for HCC 2998, entry "CC(=O)Oc1c(C)c(-c2ccccc2)c(C)c(-c2ccccc2)c1C(=S)c1ccccc1"
Outgoing: > 100 µM (inactive)

Incoming: Identify the measured GI50 of "COc1ccc2c(CC(=O)O)cc(=O)oc2c1" for HCC 2998.
Outgoing: > 100 µM (inactive)

Incoming: Please state recorded GI50 (tested on HCC 2998) of O=C(O)CCCc1ccc2c(c1)C(C(=O)O)CC2 (stereo not drawn)
Outgoing: > 100 µM (inactive)

---

# Test system: SK-OV-3
# protocol.description: NCI tumour cell line growth inhibition, 48 h
Activity calls are given as the source filed them. No stated cut-off is given here; in the data, active = GI50 up to about 1.1 µM and inactive = higher.
API: response.call in Y = active, N = inactive

Example results:
> print(dat)
                                   compound  experimental.target  category
1  C/C=C(/C)C(=O)O[C@@H]1c2c(C)coc2C[C@H]2CC[C@H](O)[C@H](C)[C@]21C              SK-OV-3         N
2  O=C1Nc2ccc([N+](=O)[O-])cc2/C1=N/NC(=S)Nc1ccc([N+](=O)[O-])cc1              SK-OV-3         N
3  O=[N+]([O-])c1cccc(C2=NOC3CCCC23)c1 (stereo unspecified)              SK-OV-3         N
4   O=C(N/C=C1\C(=O)Oc2ccccc2C1=O)Oc1ccccc1              SK-OV-3         N
5  COc1cc2cc(C(=O)Nc3cc4n(n3)-c3ccccc3C4)[nH]c2c(OC)c1OC              SK-OV-3         N
6  [O-][S+](Cc1cc2c(cc1Br)OCO2)c1ccccc1 (stereo unspecified)              SK-OV-3         N

Incoming: Hi, do you know how "O=c1[nH]/c(=C/c2ccc3c(c2)OCO3)c(=O)[nH]/c1=C/c1ccc2c(c1)OCO2" came out in this test?
Outgoing: N

Incoming: Returns: the outcome recorded for "CCC(/C=C/c1ccccc1)=N\NC(=S)N/N=C(/C=C/c1ccccc1)CC" in this assay.
Outgoing: N

Incoming: For "O=C(O)c1ccccc1/C=C1/Nc2ccccc2C1=O" , which call appears in the assay record?
Outgoing: N

Incoming: Fill in: this test's call for CC(C)[C@]12O[C@H]1[C@@H]1O[C@]13[C@]1(O[C@H]1C[C@H]1C4=C(CC[C@@]13C)C(=O)OC4)[C@@H]2O [TRIPTOLIDE] is ___
Outgoing: Y

Incoming: Give the logged outcome of this assay for the following compound: "Cn1cnc([N+](=O)[O-])c1Sc1nccc(O)n1"
Outgoing: N

Incoming: Recorded test outcome, item "CC(=O)OCc1ncccc1C(OC(C)=O)OC(C)=O"
Outgoing: N

Incoming: Query: recorded result category for COc1ccc(C2=CC(c3ccccc3)n3nnnc3N2)cc1 (stereo unspecified) in this test
Outgoing: N

Incoming: So what was the verdict on "c1cc(C[S+]2CCCC2)ccc1C[S+]1CCCC1" in this test?
Outgoing: N
